B1: HESX1 (parent)
chain: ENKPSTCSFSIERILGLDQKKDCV

- Variants of: B1
- measurementNotes: protein stability index of a GFP-peptide fusion (GPS, HEK-293T) (PSI 1-6); higher = more stable;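 note: lentivirally expressed fusions sorted by FACS into six bins by GFP to DsRed ratio, PSI derived from sequencing read proportions per bin multiplied by bin number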
- runParameters: c terminus: a fixed tail appended
Measured protein stability index by item
Lab note: write the figure by itself, no unit.

The examples below pair each entry with its known result.
INSERT INTO measurements (alteration, quantitykind, observedmeasurement) VALUES
  ('D18H', 'protein stability index', 3),
  ('R13T', 'protein stability index', 3.35),
  ('F9V', 'protein stability index', 4.09),
  ('Q19P', 'protein stability index', 3.14),
  ('S5A', 'protein stability index', 2.94),
  ('F9E', 'protein stability index', 4.41),
  ('G16D', 'protein stability index', 3.74),
  ('E1P', 'protein stability index', 2.79);

Problem: Determine from records and report protein stability index for V24H
Result: 4.64

Problem: Note protein stability index for the variant shown: N2T
Result: 2.91

Problem: Answer with the recorded protein stability index of D18M only.
Result: 2.23
